Catalogue of binders with associated koff
Biological target: T1, human IL-23 (human, UniProt Q9NPF7 20-189; P29460 23-328)
T1 construct: Bought recombinant heterodimeric cytokine (eBioscience 34-8239-85 for panning; R&D Systems for the splenocyte assay); also called hIL-23; hIL23
T1 sequence (looked up) 1: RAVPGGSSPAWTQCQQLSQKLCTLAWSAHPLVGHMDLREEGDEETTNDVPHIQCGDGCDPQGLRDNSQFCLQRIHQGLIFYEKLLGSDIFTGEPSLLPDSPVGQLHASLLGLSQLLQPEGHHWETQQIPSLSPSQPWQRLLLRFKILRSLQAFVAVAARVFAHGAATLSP
T1 sequence (looked up) 2: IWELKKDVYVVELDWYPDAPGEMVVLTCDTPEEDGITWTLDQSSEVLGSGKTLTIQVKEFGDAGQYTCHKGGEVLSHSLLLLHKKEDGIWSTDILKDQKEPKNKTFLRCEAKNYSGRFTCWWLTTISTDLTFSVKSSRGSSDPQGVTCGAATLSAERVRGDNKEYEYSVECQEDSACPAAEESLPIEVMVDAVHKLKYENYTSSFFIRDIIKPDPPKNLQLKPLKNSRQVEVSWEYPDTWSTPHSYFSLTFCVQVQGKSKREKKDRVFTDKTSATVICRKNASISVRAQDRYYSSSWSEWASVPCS
Assay: kinetic ELISA, soluble polypeptide
Quantity name: koff

[[record]]
binder = "59m_A3cA_A4cS_C2eQ (designed binder, also called design variant; polypeptide 20) single chain Alphabody: MSIQQIQKEIAQIQEVIAAIQKWIYSMTGGSGGSGGGGSGGSGGMSIEEIQKQIAAIQCQIAAIQKQIYAMTGSGGGGSGGSGGGGSGMSIEEIQKQITAIQEQIIAIYKQIMAMTP"
test_value = "0.00026 s⁻¹"

[[record]]
binder = "MB67 (designed binder) MSIQKIQKEITNIQEVIAAIQKYIYTMTGGSGGSGGMSIEEIQKQIAAIQCQIAAIQKQIYAMTGSGGGGSGGSGGGGSGMSIEEIQKQIAAIQRQILAIYKQIMAMST"
test_value = "0.00022 s⁻¹"

[[record]]
binder = "MB64 (designed binder) MSIQQIQKEITQIQAVIAGIQKYIYRMTGGSGGSGGGGSGGSGGMSIEEIQKQIAAIQCQIAAIQKQIYAMTGSGGGGSGMSIEEIQKQIAAIQGQIVAIYKQIMAMAT"
test_value = "0.00033 s⁻¹"

[[record]]
binder = "MA23 (designed binder) MSIQQIQKEIANIQEVIAAIQKWIYLMTGGSGGSGGMSIEEIQKQIAAIQCQIAAIQKQIYAMTGSGGGGSGMSIEEIQKQIAAIQEQIVAIYKQIMAMPS"
test_value = "0.00032 s⁻¹"

[[record]]
binder = "MA12 (designed binder, also called MAl2) MSIQEIQKEIAQIQAVIAGIQKYIYTMTGGSGGSGGGGSGGSGGMSIEEIQKQIAAIQCQIAAIQKQIYAMTGSGGGGSGGSGGGGSGMSIEEIQKQIAAIQEQILAIYKQIMAMVT"
test_value = "0.00021 s⁻¹"

[[record]]
binder = "MB23 (designed binder, 3 for clone 59 (conflict); also called non-PEGylated MB23 Alphabody) MSIEQIQKEITTIQEVIAAIQKYIYTMTGGSGGSGGMSIEEIQKQIAAIQCQIAAIQKQIYAMTGSGGGGSGMSIEEIQKQIAAIQEQIVAIYKQIMAMAS"
test_value = "0.00021 s⁻¹"

[[record]]
binder = "MB76 (designed binder) MSIQQIQKEITQIQEVIAAIQKYIYRMTGGSGGSDGMSIEEIQKQIAAIQCQIAAIQKQIYAMTGSGGGGSGMSIEEIQKQIAAIQGQILAIYKQIMAMSL"
test_value = "0.00056 s⁻¹"

[[record]]
binder = "MB74 (designed binder) MSIQQIQKEIATIQEVIAGIQKYIYRMTGGSGGSGGGGSGGSGGMSIEEIQKQIAAIQCQIAAIQKQIYAMTGSGGGGSGMSIEEIQKQIAAIQGQILAIYKQIMAMAI"
test_value = "0.00016 s⁻¹"

[[record]]
binder = "MAcons (designed binder, also called polypeptide 15) single chain Alphabody: MSIQQIQKEIAQIQEVIAAIQKWIYSMTGGSGGSGGGGSGGSGGMSIEEIQKQIAAIQCQIAAIQKQIYAMTGSGGGGSGMSIEEIQKQIAAIQDQIVAIYKQIMAMSG"
test_value = "0.00032 s⁻¹"

[[record]]
binder = "MA15 (designed binder) MSIQEIQKEIANIQAVIAGIQKYIYTMTGGSGGSGGGGSGGSGGMSIEEIQKQIAAIQCQIAAIQKQIYAMTGSGGGGSGMSIEEIQKQITAIQAQIIAIYKQIMAMPR"
test_value = "7.2e-05 s⁻¹"

[[record]]
binder = "MB43 (designed binder) MSIEEIQKEIKNIQEVIAAIQKYIYTMTGGSGGSGGMSIEEIQKQIAAIQCQIAAIQKQIYAMTGSGGGGSGGSGGGGSGMSIEEIPKQIAAIQDQIIAIYKQIMAMTR"
test_value = "0.00014 s⁻¹"

[[record]]
binder = "MA9 (designed binder) MSIQQIQKEITTIQAVIAAIQKWIYTMTGGSGGSGGGGSGGSGGMSIEEIQKQIAAIQCQIAAIQKQIYAMTGSGGGGSGMSIEEIQKQIAAIQGQIIAIYKQIMAMKD"
test_value = "0.00035 s⁻¹"

[[record]]
binder = "MB38 (designed binder) MSIQEIQKEIKQIQEVIAGIQKYIYGMTGGSGGSGGMSIEEIQKQIAAIQCQIAAIQKQIYAMTGSGGGGSGMSIEEIQKQIAAIQNQILAIYKQIMAMPQ"
test_value = "0.00022 s⁻¹"

[[record]]
binder = "MA5 (designed binder) MSIKQIQKEIAQIQEVIAAIQKWIYRMTGGSGGSGGMSIEEIQKQIAAIQCQIAAIQKQIYAMTGSGGGGSGGSGGGGSGMSIEEIQKQIAAIQDQIVAIYKQIMAMSS"
test_value = "0.00016 s⁻¹"

[[record]]
binder = "Cl59 (designed binder, Non-matured Alphabody from the AC11 library, tested as soluble recombinant protein; also called Clone 59; C159) MSIEEIQKQIASIQEVIAGIQKWIYMMTGGSGGSGGMSIEEIQKQIAAIQKQIAAIQKQIYAMTGGSGGGGSGMSIEEIQKQITAIKEQIIAIYKQIMAMTP"
test_value = "0.0007 s⁻¹"

[[record]]
binder = "59m_C2eQ (designed binder, also called design variant; polypeptide 19) single chain Alphabody: MSIQQIQKEIAQIQEVIAGIQKWIYMMTGGSGGSGGGGSGGSGGMSIEEIQKQIAAIQCQIAAIQKQIYAMTGSGGGGSGGSGGGGSGMSIEEIQKQITAIQEQIIAIYKQIMAMTP"
test_value = "0.00043 s⁻¹"

[[record]]
binder = "MB9 (designed binder) MSIQQIQKEITNIQEVIAAIQKWIYTMTGGSGGSGGMSIEEIQKQIAAIQCQIAAIQKQIYAMTGSGGGGSGGSGGGGSGMSIEEIQKQIAAIQNQILAIYKQIMAMGS"
test_value = "0.00025 s⁻¹"

[[record]]
binder = "MA14 (designed binder) MSIEQIQTEIASIQEVIAGIQKYIYSMTGGSGGSGGMSIEEIQKQIAAIQCQIAAIQKQIYAMTGSGGGGSGMSIEEIQKQIAAIQNQIVAIYKQIMAMGG"
test_value = "0.0005 s⁻¹"


Origin of values: patent US20150266925A1
